- EXPERIMENTAL_SYSTEM: T1, ETV6H432R (Mus musculus (murine), UniProt P97360 329-446, C334S;H432R)
- T1 sequence: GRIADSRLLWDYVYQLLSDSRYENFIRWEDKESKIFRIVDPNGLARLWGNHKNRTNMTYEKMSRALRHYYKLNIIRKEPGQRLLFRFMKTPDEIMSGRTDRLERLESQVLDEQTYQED
- ASSAY_INFO: EMSA
QUANTITY_KIND: pKd
# pKd is unitless: minus log10 of the molar concentration; print number only

Per the records, this binder ( 23-bp ETS consensus duplex (dsDNA) DNA 1: CGGCCAAGCCGGAAGTGAGTGCC DNA 2: GGCACTCACTTCCGGCTTGGCCG ) has pKd equal to 7.52
